Experiment Notes: Components of the Cytosolic LPS Sensing Pathway: Gene Identification via Genome-wide siRNA Screen
Conditions Used: RAW264.7 macrophages, IL-1a HTRF, actives lie on both sides, screened at 100 nM (by protocol), cells primed 5 h with Pam3CSK4 first
In all, about 53,000 sequences went through this assay and about 3,700 (7%) were called active.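 How the source made its calls: active means gene knockdowns whose robust z-score for IL-1 alpha signal is at least 2 or at most -2, so actives lie on both sides; inactive means the rest.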 This excerpt belongs to a sample that is enriched for actives.
The reply should be one of these categories: Yes for active, No for inactive

Previously resolved entries follow.
GGCCUUGAUUCAAUUCAACTT against Tgm6    No
GCAAGUGGAGUUUAUUGAUTT against Dbndd2    No

So what was the verdict on CCGUGAUCCCUUUUCACCATT against 6030445D17Rik in this test? Yes

In this assay, the call recorded for GGAUCGAACUGCCAUUGCUTT against A930104D05Rik was what? No

Dear all, I need the recorded test outcome for GGCAGUAGCCAGAAGGCAUTT against Rnf215 , thank you. No

* * *

Experiment Notes: Components of the Cytosolic LPS Sensing Pathway: Gene Identification via Genome-wide siRNA Screen
Conditions Used: RAW264.7 macrophages, IL-1a HTRF, actives lie on both sides, screened at 100 nM (by protocol), cells primed 5 h with Pam3CSK4 first
Procedure: Non-canonical inflammasome activation by cytosolic LPS is a critical component of the host response to Gram-negative bacterial infection, however we lack a comprehensive understanding of the cellular processes that control this pathway. […] Lipofectamine RNAiMAX Transfection Reagent ([…]; Invitrogen) was added in […] serum-free, antibiotic-free media to plate wells using a Thermo Scientific Matrix WellMate and Microplate Stacker. […] The plates were read on an EnVision plate reader (PerkinElmer). […]
In all, about 53,000 sequences went through this assay and about 3,700 (7%) were called active. Only a selection was taken, and actives are over-represented in it overall.
Measured Property: z-score

GGUUAUUACCCAGUUCACGTT against Pramel1    -0.668 (inactive)

Field request: z-score | item: GCUUGUAAAUGGAACGACATT against 0610012G03Rik -0.69 (inactive)

Reported z-score, sequence GGAUGGAUUACUGAAAGUUTT against Wdr35 : ____ 0.715 (inactive)

* * *

Experiment Notes: Components of the Cytosolic LPS Sensing Pathway: Gene Identification via Genome-wide siRNA Screen
Conditions Used: RAW264.7 macrophages, IL-1a HTRF, actives lie on both sides, screened at 100 nM (by protocol), cells primed 5 h with Pam3CSK4 first
Screen size: about 53,000 sequences; about 3,700 (7%) were called active.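 Rule for the calls: active = gene knockdowns whose robust z-score for IL-1 alpha signal is at least 2 or at most -2, so actives lie on both sides; inactive = the rest.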 This is one part of a sample in which actives are shown more often than they occur.
Allowed answers: 1.0 for active, 0.0 for inactive

GGAUGAAGGAACUAAAUAUTT against Cog3    1.0
GGUCAAUUUGGUUUGUGAATT against Cenpa    0.0

Outcome? GGUAAAUCAAAUCACUGCCTT against Slamf1 0.0

Status in this test for GGAGAAAGGAUUAUAGAUGTT against Klk7 ? 0.0

Which outcome did this test record for the sequence GCAUGUUUACCUCAAAGUGTT against Cd209e ? 0.0

State the result this test recorded for GGACAUGACCAAAAGGCUGTT against Zfp706 . 1.0

Lab log entry: GGAGAAAGUCAAGAUCAAATT against Gpr4 — outcome as called in the assay? 1.0

Dear all, I need the recorded test outcome for GGAAAGAGGGUUUAUUUUGTT against 4930556L07Rik , thank you. 0.0

Each sequence tested received a call. Report the one for GGUCAUCAAGCAGUGCUAUTT against Ncstn . 1.0

Which outcome was entered for the sequence GGGCAUAUUCAAACUUGUGTT against Elf2 in this test? 0.0

All values here come from PubChem BioAssay AID1508600.
